Data credit: patent US10988456B2

// 10 nM inhibition ratio RET lookup, one value per entry
- Tested On: RET (Homo sapiens, UniProt P07949)
- Sequence (P07949 29-1114): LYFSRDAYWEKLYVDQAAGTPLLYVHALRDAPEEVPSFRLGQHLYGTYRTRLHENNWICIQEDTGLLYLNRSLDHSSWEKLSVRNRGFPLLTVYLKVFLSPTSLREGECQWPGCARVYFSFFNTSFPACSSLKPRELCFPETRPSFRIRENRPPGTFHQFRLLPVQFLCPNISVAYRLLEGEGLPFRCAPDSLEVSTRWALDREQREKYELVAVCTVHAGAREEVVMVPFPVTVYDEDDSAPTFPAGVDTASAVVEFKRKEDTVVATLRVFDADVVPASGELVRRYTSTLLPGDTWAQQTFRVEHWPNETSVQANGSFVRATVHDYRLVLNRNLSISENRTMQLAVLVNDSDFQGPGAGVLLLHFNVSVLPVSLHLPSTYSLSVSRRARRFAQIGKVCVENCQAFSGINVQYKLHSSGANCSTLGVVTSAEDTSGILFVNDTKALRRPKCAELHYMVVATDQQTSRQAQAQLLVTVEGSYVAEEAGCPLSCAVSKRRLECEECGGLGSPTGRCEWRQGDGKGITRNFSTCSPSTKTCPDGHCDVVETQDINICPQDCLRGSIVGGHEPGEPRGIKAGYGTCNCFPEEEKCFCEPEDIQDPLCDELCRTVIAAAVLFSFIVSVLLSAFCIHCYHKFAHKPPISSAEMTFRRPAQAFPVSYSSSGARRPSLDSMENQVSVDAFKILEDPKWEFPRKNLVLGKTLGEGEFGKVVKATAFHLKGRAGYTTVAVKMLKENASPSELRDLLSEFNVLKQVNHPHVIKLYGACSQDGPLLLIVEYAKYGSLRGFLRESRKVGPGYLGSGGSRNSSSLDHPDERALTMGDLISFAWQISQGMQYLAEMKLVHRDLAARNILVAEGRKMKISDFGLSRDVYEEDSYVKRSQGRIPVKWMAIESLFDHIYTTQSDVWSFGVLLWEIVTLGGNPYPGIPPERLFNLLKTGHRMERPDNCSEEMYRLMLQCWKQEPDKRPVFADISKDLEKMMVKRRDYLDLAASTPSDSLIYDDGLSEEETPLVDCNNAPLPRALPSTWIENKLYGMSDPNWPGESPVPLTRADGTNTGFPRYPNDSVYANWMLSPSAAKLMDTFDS
- Method Summary: Inhibition of receptor tyrosine kinase activity at molecular level (ELISA, Poly(Glu,Tyr)4:1 substrate phosphorylation)
- Assay type: biochemical
- Experimental Setup: 10 nM compound; average of two independent experiments
Keep it simple and answer with nothing but the number.

Examples with answers:
- Molecule: "CN1CCN(Cc2ccc(NC(=O)c3ccc(Cl)c(C#Cc4cc(COC(F)(F)F)cnc4N)c3)cc2C(F)(F)F)CC1"
  10 nM inhibition ratio RET: 70.8
- Molecule: "COc1ccc(C(=O)Nc2ccc(CN3CCN(C)CC3)c(C(F)(F)F)c2)cc1C#Cc1cccnc1N"
  10 nM inhibition ratio RET: 52.0

Given item COc1ncccc1C#Cc1cc(C(=O)Nc2ccc(CN3CCN(C)CC3)c(C(F)(F)F)c2)ccc1Cl [HuFGFR148, reference compound] , the value recorded as its 10 nM inhibition ratio RET is 21.7

For reference, reported 10 nM inhibition ratio RET for CN1CCN(Cc2ccc(NC(=O)c3ccc(Cl)c(C#Cc4cc(OC5CC5)cnc4N)c3)cc2C(F)(F)F)CC1 stands at 66.1

Form: molecule = CN1CCN(Cc2ccc(NC(=O)c3ccc(Cl)c(C#Cc4cc(N(C)C)cnc4N)c3)cc2C(F)(F)F)CC1 ; 10 nM inhibition ratio RET = 56.3

# 10 nM inhibition ratio RET of CN1CCN(Cc2ccc(NC(=O)c3ccc(C#N)c(C#Cc4cccnc4N)c3)cc2C(F)(F)F)CC1 = 40.1

For reference, reported 10 nM inhibition ratio RET for CN1CCN(Cc2ccc(NC(=O)c3cc(C#Cc4cccnc4N)cc(C(F)(F)F)c3)cc2C(F)(F)F)CC1 stands at 63.4

The measured 10 nM inhibition ratio RET associated with CN1CCN(Cc2ccc(NC(=O)c3ccc(F)c(C#Cc4cccnc4N)c3)cc2C(F)(F)F)CC1 reads 69.2

CN1CCN(Cc2ccc(NC(=O)c3cc(Cl)cc(C#Cc4cccnc4N)c3)cc2C(F)(F)F)CC1 has a reported 10 nM inhibition ratio RET of 83.4

# 10 nM inhibition ratio RET of COc1cc(C#Cc2cccnc2N)cc(C(=O)Nc2ccc(CN3CCN(C)CC3)c(C(F)(F)F)c2)c1 = 64.3
